# System: Plasmodium yoelii
# assay_summary: Compound was evaluated for uM
# Parameters: concentration or dose not given beside the values
# test_conditions: concentration not given here
Outcome label depends on inhibition relative to 80%: at/above gives fulfilled, below gives not fulfilled.

> print(dat)
                                   compound   target.or.system  discrete.label
1  CCCCNC(=O)CCC1(c2ccc3ncc(C(=O)OCC)c(O)c3c2)CCC(=O)NC1=O (stereo not drawn)  Plasmodium yoelii       fulfilled
2  CCOC(=O)c1cnc2ccc(C3(CCC(=O)CCc4ccc(OC)c(OC)c4)CCC(=O)NC3=O)cc2c1O (stereo not drawn)  Plasmodium yoelii       fulfilled
3  CCOC(=O)c1cnc2cc(C3CCC(=O)O3)ccc2c1O (stereo not drawn)  Plasmodium yoelii   not fulfilled
4  CCOC(=O)c1cnc2ccc(C3(CCC(=O)NC(C)CC)CCC(=O)NC3=O)cc2c1O (stereo not drawn)  Plasmodium yoelii   not fulfilled
5  CCOC(=O)c1cnc2ccc(C3(CCC(=O)NCCC(C)C)CCC(=O)NC3=O)cc2c1O (stereo not drawn)  Plasmodium yoelii       fulfilled
6    CCOC(=O)c1cnc2cc(C3=NNC(=O)CC3)ccc2c1O  Plasmodium yoelii   not fulfilled
7  CCOC(=O)c1cnc2ccc(C3(CCC(=O)OC)CCC(=O)NC3=O)cc2c1O (stereo not drawn)  Plasmodium yoelii   not fulfilled
